Here, each record is paired with measured pre-steady-state target cleavage rate data.
Tested on: EfPiwi piRISC loaded with L1MC piRNA (26 nt)
Assay: pre-steady-state target cleavage rate (min^-1); auxiliary factor: 500 nM Ephydatia muelleri Gtsf1; guide: L1MC piRNA 5'p-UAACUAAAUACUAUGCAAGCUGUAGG; higher = faster piRNA-guided slicing of the target

| sequence | pre-steady-state target cleavage rate |
| --- | --- |
| UCCUGGAACAGCUUGCAUAGUAUUUUAGUUA | 0.0192 |
| UCCUCGAUCAGCUUGCAUAGUAUUUACAAA | 0.00554 |
| UCCUGGAUGUCGUUAGCAUAGUAUUUAGUUA | 0.00456 |
| UCCUCCUACAGCUUGGAUAGUAUUUACUUA | 0.00254 |
| UCCUGGUACAGCUUCCAUAGUAUUUAGUAA | 0.00378 |
| UCCUGGAUGUCGAACGUAAGUAUUUAAUUA | < 0.0001 |
| UCCUCCUACAGCUUGCAUAGUUUUUACAAA | 0.00552 |
| UCCUGGAUGUCCUGGCAUAGUAUUUAGUUA | 0.0055 |
| UCCUGGAUGAGCUUGCAUAGAAUUUAGUAA | 0.00272 |
| UCCUCCUACUGCUUGCAUAGUAUUUUGUUA | 0.0111 |
| UCCUGCUACAGCAUGCAUAGUAUAUAGUUA | 0.00599 |
| UCCUGGUACUAGCUUGCAUAGUAUUUAGUUA | 0.00885 |
| UCCUGCUACAGCUUGCAUAGUAUUUAGUCUA | 0.00636 |
| UCCUGGUACAGGAUGCAUAGUAUUUAGUAA | 0.00412 |
| UCCUGGAUCAGCUCUGCAUAGUAUUUAGUUA | 0.101 |
| UCCUGGAACAGCUUGCAUAGUAUUUAGAAA | 0.00395 |
| UCCUGCUACAGCCUUGCAUAGUAUUUAGUUA | 0.0116 |
| UCCUGGAUGAGCUUGCAUAGUAUUUACAUA | 0.00323 |
| UCCUGGAUCAGCUUGCAUAGUAUUUAGUAA | 0.00774 |
| UCCUGGUACAGCUUGGUUAGUAUUUAGUUA | 0.00478 |
| UCCUCCUACAGCUUGGAUAGUAUUUAGUAA | 0.00895 |
| UCCUGGAUGAGCUGUGCAUAGUAUUUAGUUA | 0.0255 |
| UCCUCCUACAGCUUGCAUAGUAUAUUAGUUA | 0.0567 |
| UCCUCCUACAGCUUGGAUAGUAUUUAGUUA | 0.057 |
| UCCUCCUACUGGUUGCAUAGUAUUUAGUUA | 0.1 |
| UCCUGGUACAGCUUGCAGAGUAUUUAGUUA | 0.00371 |
| UCCUCGUACAGCUAGCAUAGUAUUUAGUUA | 0.0402 |
| UCCUGGAUGAGCUUCCAUAGUAUUUAGAAA | 0.00248 |

---

Test system: EfPiwi piRISC loaded with L1MC piRNA (26 nt)
Test: pre-steady-state target cleavage rate (min^-1); auxiliary factor: 500 nM Ephydatia muelleri Gtsf1; guide: L1MC piRNA 5'p-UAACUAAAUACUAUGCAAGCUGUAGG; higher = faster piRNA-guided slicing of the target
Entries and their pre-steady-state target cleavage rate

| sequence | pre-steady-state target cleavage rate |
| --- | --- |
| UCCUGGUACAGCUUGCAUAGUAUUUAGUUU [g2:g24:cont:t1U] | 0.117 |
| UCCUGGAUCAGCUUGCAUAGUAUUCAGUUA | 0.00509 |
| UCCUGCUUCAGGUUGCAUAGUAUUUAGUUA | 0.0664 |
| UCCUGGAUCAGCUUGCAUAGUAUUUACAUA | 0.00271 |
| UCCUCCAACAGCUUGCAUAGUAUAUAGUUA | 0.00628 |
| UCCUGCUACAGCUUGCAUAGUAUUAAGAUA | 0.00501 |
| UCCUGGAUGAGCUUGAAUAGUAUUUAGUUA | 0.00419 |
| UCCUGGUUGAGCUUGCAUAGUAUUUUCAAA | 0.00218 |
| UCCUGGUACAGCUUGCAUAGUAUUUAGUUG [g2:g24:cont:t1G] | 0.0182 |
| UCCUCCUACAGCUUGCAUAGAAUUUAGUUA | 0.0078 |
| UCCUCGUACAGCUUGCAUAGUAUUUACAAA | 0.00271 |
| UCCUGGAACAGCUUGCAUAGUAUUUACAUA | 0.00316 |
| UCCUGGUACAGCUUGCUAUAGUAUUUAGUUA | 0.00339 |

---

Test system: EfPiwi piRISC loaded with L1MC piRNA (26 nt)
Assay: pre-steady-state target cleavage rate (min^-1); auxiliary factor: 500 nM Ephydatia muelleri Gtsf1; guide: L1MC piRNA 5'p-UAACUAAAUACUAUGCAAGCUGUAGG; MIWI and MILI are mouse PIWI proteins and EfPiwi is from a freshwater sponge; tags in brackets are library labels; higher = faster piRNA-guided slicing of the target
A collection of sequences and their measured pre-steady-state target cleavage rate

| sequence | bound-operator | pre-steady-state target cleavage rate |
| --- | --- | --- |
| UCCUGGAUCAGCUUGCAUAGUAUUUAGCUUA | = | 0.0068 |
| UCCUGCUUCAGCUUGCAAAGUAUUUAGUUA | = | 0.0683 |
| UCCUGCUACACCUUGCAUAGUAUUUAGUAA | = | 0.00559 |
| UCCUGCUACAGCUUGCAUAGUUUUUUCAAA | = | 0.00248 |
| UCCUGGAACAGCUUGCAUAGUAUUAUGUUA | = | 0.00324 |
| UCCUGGAACUGCUUGCUUAGUAUUUAGUUA | = | 0.00646 |
| UCCUGGAACAGCUUGCAUAGUAUUUGUUA | = | 0.00531 |
| UCCUGGAUCUGCUUGCUUAGUAUUUAGUUA | = | 0.0931 |
| UCCUGGAUCAGCUUGCUUAGUAUUAAGUUA | = | 0.00376 |
| UCCUGGAUCAGUUGCAUAGUAUUUAGUUA | = | 0.0258 |
| UCCUGGAACAGCUUGGAUAGUAUAUAGUUA | = | 0.00939 |
| UCCUGGAUGUCGUUCCAUAGUAAUUAGUUA | < | 0.0001 |
| UCCUGCAUCAGCUUGCAUAGUAUUUAGAAA | = | 0.00393 |
